Biological target: JAK3 (Homo sapiens, UniProt P52333)
Sequence (P52333 whole entry): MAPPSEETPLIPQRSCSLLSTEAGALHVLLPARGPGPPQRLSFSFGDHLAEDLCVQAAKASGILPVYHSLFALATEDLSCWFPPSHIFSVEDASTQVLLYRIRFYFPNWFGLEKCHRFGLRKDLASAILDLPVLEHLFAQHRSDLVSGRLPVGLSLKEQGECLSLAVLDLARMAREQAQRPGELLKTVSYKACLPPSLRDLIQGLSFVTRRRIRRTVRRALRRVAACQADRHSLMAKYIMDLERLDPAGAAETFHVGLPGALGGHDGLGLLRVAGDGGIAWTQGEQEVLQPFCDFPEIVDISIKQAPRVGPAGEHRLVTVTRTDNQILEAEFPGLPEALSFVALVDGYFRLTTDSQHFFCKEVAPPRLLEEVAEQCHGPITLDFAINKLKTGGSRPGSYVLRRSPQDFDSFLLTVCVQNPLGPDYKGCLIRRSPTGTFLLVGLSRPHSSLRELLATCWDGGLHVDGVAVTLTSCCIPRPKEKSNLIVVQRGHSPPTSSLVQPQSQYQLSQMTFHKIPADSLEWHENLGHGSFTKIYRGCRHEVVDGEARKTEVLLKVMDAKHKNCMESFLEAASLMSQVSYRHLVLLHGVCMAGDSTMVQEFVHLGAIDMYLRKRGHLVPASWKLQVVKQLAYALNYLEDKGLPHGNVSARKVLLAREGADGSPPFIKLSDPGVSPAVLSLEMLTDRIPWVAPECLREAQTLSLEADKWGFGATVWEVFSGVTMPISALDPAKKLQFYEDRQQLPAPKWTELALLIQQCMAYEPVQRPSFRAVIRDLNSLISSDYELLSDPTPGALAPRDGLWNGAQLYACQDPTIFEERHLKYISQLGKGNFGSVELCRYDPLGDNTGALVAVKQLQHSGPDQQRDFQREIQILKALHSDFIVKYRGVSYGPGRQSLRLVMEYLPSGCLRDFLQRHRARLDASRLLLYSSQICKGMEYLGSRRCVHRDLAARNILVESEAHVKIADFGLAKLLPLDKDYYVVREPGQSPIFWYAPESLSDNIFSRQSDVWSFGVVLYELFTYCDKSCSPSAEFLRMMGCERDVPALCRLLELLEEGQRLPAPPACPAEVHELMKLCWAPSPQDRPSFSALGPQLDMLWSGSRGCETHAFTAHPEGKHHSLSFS
Assay: JAK3 inhibition assay (33P incorporation into poly(Glu)4Tyr)
Format: biochemical
Settings: enzyme inhibition, Table 5
Measured parameter: Ki

If you can, please state the reported Ki value of O=C(c1cccc(-c2ccnc3[nH]ccc23)c1)N1CCOCC1 [compound 94] .
500 to 5000 nM

# input compound: O=C(c1ccc(-c2ccnc3[nH]ccc23)s1)N1CCC[C@H]1CO [compound 10] ; wanted: its Ki
< 500 nM

Param item = CN1CCCC1CCNc1cccc(-c2ccnc3[nH]ccc23)n1 (centres unmarked) [compound 37] ; retrieve measured Ki.
> 5000 nM

What does the data say about its Ki? Entry: c1cc(-c2ccoc2)c2cc[nH]c2n1 [compound 133, 4-Furan-3-yl-1H-pyrrolo[2,3-b]pyridine]
500 to 5000 nM

What does the record list as Ki for CC1CCCC=C1c1c(Cl)cnc2[nH]ccc12 (centres unmarked) [compound 68] ?
< 500 nM

Could you tell me which Ki is on file for N#CC1(c2cccc(-c3ccnc4[nH]ccc34)n2)CCCCC1 [compound 103] ?
< 500 nM

Item Cn1cc(-c2c(Cl)cnc3[nH]ccc23)cn1 [compound 70] has what recorded Ki?
< 500 nM

I am curious: what Ki value has been reported for CC(C)(O)c1cccc(-c2ccnc3[nH]ccc23)n1 [compound 123] ?
< 500 nM

# lookup: Ki of CN(C)CCN(C)c1cccc(-c2c(Cl)cnc3[nH]ccc23)n1 [compound 83]
< 500 nM

Form field: reported Ki of O=C(c1cccc(-c2ccnc3[nH]ccc23)c1)N1CCCCC1 [compound 93]
500 to 5000 nM

What Ki value was documented for this compound, c1cc(CN2CCCCC2)cc(-c2ccnc3[nH]ccc23)c1 [compound 87] ?
500 to 5000 nM

Quick one: Ki for CC(=O)N(Cc1ccccc1)c1cc(-c2ccnc3[nH]ccc23)cs1 [compound 21] ?
< 500 nM

Requested read-out: Ki. Entry: CC(=O)Nc1ccccc1-c1ccnc2[nH]ccc12 [compound 118]
> 5000 nM

Dear colleague, I am looking for the recorded Ki of the following compound: CN1CCN(C(=O)c2cccc(-c3ccnc4[nH]ccc34)c2)CC1 [compound 95]
> 5000 nM

What value of Ki has been recorded for this entry: c1ccc(COc2cccc(-c3ccnc4[nH]ccc34)c2)cc1 [compound 42]
< 500 nM

Returns the measured Ki for the input compound. Input: c1cc(NC2CCCC2)nc(-c2ccnc3[nH]ccc23)c1 [compound 24]
500 to 5000 nM

So what's the measured Ki for this one? CC(=O)N1CCN(c2cccc(-c3ccnc4[nH]ccc34)n2)CC1 [compound 26]
500 to 5000 nM

Returns the measured Ki for the input compound. Input: CCOC(=O)c1cccc(-c2ccnc3[nH]ccc23)c1 [compound 46]
500 to 5000 nM

Give the measured Ki of O=C(c1ccc(-c2ccnc3[nH]ccc23)s1)N1CCNCC1 [compound 4] .
< 500 nM

GET /values?readout=Ki&item= c1cc(-c2ccnc3[nH]ccc23)nc(N2CCC[C@H]2CN2CCCC2)c1 [compound 54]
> 5000 nM

What does the record list as Ki for N#CCC(=O)N1CCCN(c2cccc(-c3ccnc4[nH]ccc34)n2)CC1 [compound 19] ?
500 to 5000 nM

Fill in: Ki of CC(=O)N1CC=C(c2ccnc3[nH]ccc23)CC1 [compound 64] is ___
500 to 5000 nM

// lookup Ki for CCCNC(=O)c1ccc(-c2ccnc3[nH]ccc23)s1 [compound 7]
< 500 nM

Query (compound): O=C(Nc1cccc(-c2ccnc3[nH]ccc23)n1)c1ccccc1 [compound 100] ; field requested: Ki
500 to 5000 nM

// returns reported Ki for input Oc1cccc(-c2ccnc3[nH]ccc23)c1 [compound 105, 3-(1H-Pyrrolo[2,3-b]pyridin-4-yl)-phenol]
< 500 nM

Data request, read-out Ki, for Clc1ccc(-c2ccnc3[nH]ccc23)cc1Cl [compound 41]
500 to 5000 nM
